Target: Cin5 (UniProt P40917)
Sequence: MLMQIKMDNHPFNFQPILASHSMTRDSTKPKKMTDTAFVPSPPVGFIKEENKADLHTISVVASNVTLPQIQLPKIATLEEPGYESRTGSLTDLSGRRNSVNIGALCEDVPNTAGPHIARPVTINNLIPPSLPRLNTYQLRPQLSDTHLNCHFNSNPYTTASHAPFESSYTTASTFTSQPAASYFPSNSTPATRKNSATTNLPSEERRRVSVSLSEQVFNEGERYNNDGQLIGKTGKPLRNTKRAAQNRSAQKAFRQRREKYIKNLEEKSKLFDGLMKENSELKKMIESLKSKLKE
Assay: PBM E-score (8-mer binding enrichment) (E-score (-0.5 to 0.5)); higher = stronger / more preferred TF binding
Conditions: protein concentration: 100 nM; construct: GST-full length
In all, about 33,000 sequences were measured (“E-score (-0.5 to 0.5)”: median about -0.0059, highest 2% from about 0.26 on). This is one part of a sample in which the highest values are shown more often than they occur.
Could you please report measured PBM E-score for the items listed next?
Write no unit; give the number alone.

Ask: PBM E-score lookup needed for AAACATAA , thanks.
Result: 0.199

Ask: For the sequence GTACGTAA , what PBM E-score is on record?
Result: 0.397

Ask: # input sequence: CAACATAG ; wanted: its PBM E-score
Result: 0.0889

Ask: Suppose we examine the sequence AGTAGATC ; what PBM E-score value has been reported?
Result: -0.0135

Ask: Given the entry AATATTGG , report its measured PBM E-score.
Result: 0.154

Ask: PBM E-score for ATAAATTG ?
Result: 0.272

Ask: Param item = ATTCGTAA ; retrieve measured PBM E-score.
Result: 0.304

Ask: Report PBM E-score for ATCCGGAT please.
Result: 0.259

Ask: # lookup: PBM E-score of GAGATCTC
Result: -0.0335

Ask: Find the recorded PBM E-score belonging to ATCCGGAC and report it.
Result: -0.149

Ask: Look up PBM E-score for this sequence: ATCCGGAA
Result: 0.227

Ask: // lookup PBM E-score for GAACATAA
Result: 0.198

Ask: Can you share its PBM E-score? I mean this sequence: TAACCAAA
Result: 0.175

Ask: Any idea what its PBM E-score is? The sequence is ACAAATTA
Result: 0.269

Ask: PBM E-score lookup needed for AACCCTAT , thanks.
Result: 0.107

Ask: # query: PBM E-score of entry CATCTGCC
Result: -0.0681

Ask: Look up PBM E-score: CAACATAA
Result: 0.286

Ask: Name the reported PBM E-score value associated with the sequence AATATTAA
Result: 0.304

Ask: Query (sequence): CTAAATTA ; field requested: PBM E-score
Result: 0.258

Ask: // PBM E-score lookup, key: GATAGCAA
Result: 0.279

Ask: // lookup PBM E-score for AAAAATTG
Result: -0.0306

Ask: Look at this sequence and give its reported PBM E-score. AATCATAC
Result: 0.206

Ask: Request the reported PBM E-score associated with CAACATAC
Result: 0.125

Ask: Which value of PBM E-score has been reported for AACATTAG in the records?
Result: -0.0325

Ask: Would you mind telling me what PBM E-score value was observed for TAAAATTA ?
Result: 0.178

Ask: Entry CTAAATTC has what PBM E-score?
Result: 0.0709

Ask: I am curious: what PBM E-score value has been reported for CCAAATTA ?
Result: 0.187

Ask: // lookup PBM E-score for TATCATAA
Result: 0.272

Ask: Can you share its PBM E-score? I mean this sequence: AAAAATTA
Result: 0.227

Ask: I would be grateful if you could share the reported PBM E-score for GCAGGAGC .
Result: -0.285

Ask: For GGATCAAA , what is its reported PBM E-score?
Result: 0.0839

Ask: Could you tell me which PBM E-score is on file for AACATTAT ?
Result: 0.261

Ask: Which PBM E-score is reported for this sequence? AATCATAG
Result: 0.291

Ask: What value of measured PBM E-score is listed for GTTCGTAA ?
Result: 0.153

Ask: Record request: PBM E-score value, item AACACTGA
Result: 0.271

Ask: Consider the sequence shown here: CATATTAC What is its recorded PBM E-score?
Result: 0.287

Ask: Could you tell me which PBM E-score is on file for ATACGTAG ?
Result: 0.116

Ask: I'd like to know its PBM E-score. The sequence in question is AACATTAC
Result: 0.148

Ask: Can you look up the measured PBM E-score of AATATTGC for me?
Result: 0.235

Ask: # PBM E-score lookup, item GATAGATA
Result: 0.0426

Ask: Param item = CTACGTAA ; retrieve measured PBM E-score.
Result: 0.24

Ask: Fill blank: measured PBM E-score of the sequence CTACGAAA is ____.
Result: -0.0568

Ask: Which PBM E-score reading was recorded for the sequence GTAAATTA ?
Result: 0.192

Ask: State the recorded PBM E-score for this entry: AATCATAT
Result: 0.193

Ask: What value of PBM E-score has been recorded for this entry: ACTTTTCT
Result: 0.0353

Ask: // lookup PBM E-score for TATAGATA
Result: 0.176
